# ASSAY_SYSTEM: endogenous GABAB receptor in CGNs (Mus musculus, UniProt Q9WV18)
# Construct: gene Gabbr1; native receptor, primary cerebellar granule neurons
# Sequence (Q9WV18 whole entry): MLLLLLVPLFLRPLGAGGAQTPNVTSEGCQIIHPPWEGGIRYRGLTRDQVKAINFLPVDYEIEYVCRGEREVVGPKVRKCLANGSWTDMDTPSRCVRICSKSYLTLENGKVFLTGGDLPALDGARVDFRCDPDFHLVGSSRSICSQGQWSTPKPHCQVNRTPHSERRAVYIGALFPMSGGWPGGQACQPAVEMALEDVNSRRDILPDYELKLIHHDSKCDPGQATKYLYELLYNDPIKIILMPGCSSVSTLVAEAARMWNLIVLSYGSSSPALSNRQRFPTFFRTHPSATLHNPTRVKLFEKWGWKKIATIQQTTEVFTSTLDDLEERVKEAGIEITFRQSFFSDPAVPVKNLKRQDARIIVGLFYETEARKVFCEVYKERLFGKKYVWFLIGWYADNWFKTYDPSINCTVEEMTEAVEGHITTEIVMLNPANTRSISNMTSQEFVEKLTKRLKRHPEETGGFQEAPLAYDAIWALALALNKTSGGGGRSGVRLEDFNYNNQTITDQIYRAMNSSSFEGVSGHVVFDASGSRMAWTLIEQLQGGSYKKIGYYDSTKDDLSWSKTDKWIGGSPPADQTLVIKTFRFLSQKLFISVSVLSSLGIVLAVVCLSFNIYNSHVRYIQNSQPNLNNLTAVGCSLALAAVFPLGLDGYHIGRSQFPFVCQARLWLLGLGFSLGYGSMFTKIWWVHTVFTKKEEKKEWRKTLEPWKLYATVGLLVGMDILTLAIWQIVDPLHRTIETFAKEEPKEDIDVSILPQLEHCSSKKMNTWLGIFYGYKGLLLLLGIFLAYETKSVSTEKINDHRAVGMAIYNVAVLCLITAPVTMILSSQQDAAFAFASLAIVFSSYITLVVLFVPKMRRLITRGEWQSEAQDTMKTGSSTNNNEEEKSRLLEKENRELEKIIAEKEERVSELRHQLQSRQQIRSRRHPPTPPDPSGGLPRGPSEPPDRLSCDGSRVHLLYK
# Sequence (Q80T41 whole entry partner): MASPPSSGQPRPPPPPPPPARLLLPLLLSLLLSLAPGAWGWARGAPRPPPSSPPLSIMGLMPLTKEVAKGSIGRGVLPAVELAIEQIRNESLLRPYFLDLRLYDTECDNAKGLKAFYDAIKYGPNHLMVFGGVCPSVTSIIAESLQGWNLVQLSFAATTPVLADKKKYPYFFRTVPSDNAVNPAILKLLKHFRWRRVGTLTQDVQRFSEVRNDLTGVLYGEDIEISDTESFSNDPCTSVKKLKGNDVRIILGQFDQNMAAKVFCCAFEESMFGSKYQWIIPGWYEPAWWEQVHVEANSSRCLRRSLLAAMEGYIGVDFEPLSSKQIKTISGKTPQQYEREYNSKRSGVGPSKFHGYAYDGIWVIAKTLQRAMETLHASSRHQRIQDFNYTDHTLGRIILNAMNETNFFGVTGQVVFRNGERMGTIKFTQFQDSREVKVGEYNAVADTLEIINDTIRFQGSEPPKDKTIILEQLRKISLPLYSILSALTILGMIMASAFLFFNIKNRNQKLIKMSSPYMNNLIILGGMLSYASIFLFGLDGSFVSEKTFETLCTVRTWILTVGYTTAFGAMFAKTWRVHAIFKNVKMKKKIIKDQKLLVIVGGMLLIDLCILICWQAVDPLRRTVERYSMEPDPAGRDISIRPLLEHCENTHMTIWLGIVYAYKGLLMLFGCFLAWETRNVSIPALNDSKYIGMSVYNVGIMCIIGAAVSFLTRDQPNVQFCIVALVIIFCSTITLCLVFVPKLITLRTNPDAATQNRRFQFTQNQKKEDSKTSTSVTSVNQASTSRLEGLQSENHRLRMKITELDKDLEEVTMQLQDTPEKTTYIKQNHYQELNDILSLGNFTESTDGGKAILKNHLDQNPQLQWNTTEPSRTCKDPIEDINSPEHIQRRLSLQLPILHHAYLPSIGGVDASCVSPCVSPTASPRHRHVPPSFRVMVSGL
# ASSAY: cell-based
# Parameters: species or system primary cerebellar granule neurons (CGNs); BRET G protein sensor (Galpha-Nluc / Venus-Ggamma2), agonist-induced change of BRET
# PROTOCOL_CONDITIONS: Gi1 sensor
As shown below, each of these molecules has a reported pEC50 value.
Formally, pEC50 is defined as -log10 of the concentration c, with c in mol/L.

Give reported pEC50 value for NCCC[PH](=O)O
6.13

Give reported pEC50 value for NCC(CC(=O)O)c1ccc(Cl)cc1 (stereo not drawn)
5.32

Next:
Give reported pEC50 value for CP(=O)(O)CCCN
5.63
